# Test system: Rattus norvegicus
# assay summary: Antiulcer activity in Wistar Rattus norvegicus (rat) assessed as change in pH of gastric secretions at 0.0289 mM/kg, po administered 1 hr prior to pylorous ligation measured after 19 hr by digital pH metric analysis relative to untreated control
# Assay type: functional, Stomach
Kindly apply the following: Met if Activity is less than 5%, Not met in every other case.

### Prompt In the record for COc1ccc2[nH]c([S+]([O-])Cc3nc(Cl)c4c(-c5ccc(Cl)cc5)csc4n3)nc2c1 (centres undefined) , is Activity less than 5%?
### Response Met

### Prompt I'd appreciate it if you could check whether COc1nc(C[S+]([O-])c2nc3ccccc3[nH]2)nc2scc(-c3ccc(Cl)cc3)c12 (centres undefined) has Activity smaller than 5%.
### Response Not met

### Prompt Please check: Activity for [O-][S+](Cc1nc(OCC(F)(F)F)c2c(-c3ccccc3)csc2n1)c1nc2ccccc2[nH]1 (centres undefined) , strictly under 5% or not?
### Response Met

### Prompt Record COc1ccc2[nH]c([S+]([O-])Cc3nc(OC)c4c5c(sc4n3)CCCC5)nc2c1 (centres undefined) : is its Activity strictly below 5%?
### Response Met

### Prompt A record lists COc1ccc2[nH]c([S+]([O-])Cc3nc(OC)c4c(-c5ccc(Cl)cc5)csc4n3)nc2c1 (centres undefined) . Is its Activity below 5%?
### Response Not met

### Prompt Answer whether the molecule COc1nc(C[S+]([O-])c2nc3ccccc3[nH]2)nc2sc3c(c12)CCCC3 (centres undefined) has Activity strictly less than 5%
### Response Not met

### Prompt Determine whether this molecule shows Activity lower than 5% (ties excluded): [O-][S+](Cc1nc(OCC(F)(F)F)c2c3c(sc2n1)CCCC3)c1nc2ccccc2[nH]1 (centres undefined)
### Response Not met

### Prompt Regarding COc1ccc2[nH]c([S+]([O-])Cc3nc(Cl)c4c(-c5ccccc5)csc4n3)nc2c1 (centres undefined) , kindly confirm whether its Activity is beneath 5%.
### Response Not met
